Test system: NCI-H226
Test: NCI tumour cell line growth inhibition, 48 h
Activity calls are given as the source filed them. Rule as the data show it: active = GI50 up to about 1.1 µM and inactive = higher. Square brackets hold non-standard residues; d marks the D form. Peptide text beside a SMILES is read from it.
Answer with one of the outcomes active, inactive

(Q) Outcome? `NNC(=O)CC(=O)Nc1cccc(Cl)c1`
(A) inactive

(Q) How about this compound: `C(=C\c1nccs1)/c1cccc(/C=C/c2nccs2)n1`
(A) inactive

(Q) How about this compound: `COc1ccc(C(N)=O)c(OC)c1OCc1ccccc1`
(A) inactive

(Q) How about this compound: CCOC(=O)C(Cc1cn(C(C)=O)c2ccccc12)P(=O)(OCC)OCC (stereo unspecified)
(A) inactive

(Q) How about this compound: `CCOC(=O)/C(C(=O)Nc1cccc(C(F)(F)F)c1)=C(/N)N1CCOCC1`
(A) inactive

(Q) How about this compound: `O=c1ccn(CC2(CO)CCCC2)c(=O)[nH]1`
(A) inactive

(Q) How about this compound: C[C@@H](CC(O)C1OC1(C)C)[C@@H]1CC[C@]2(C)C3=CCC4C(C)(C)C(O)CC[C@]4(C)C3CCC12C (stereo partly specified)
(A) inactive

(Q) How about this compound: `CCCc1c(O)nc(Nc2nc3ccccc3[nH]2)[nH]c1=O`
(A) inactive

(Q) How about this compound: `O=C(CCN(C(=O)O)S(=O)(=O)c1ccc(NC(=O)c2ccccc2)cc1)Nc1ccccc1`
(A) inactive

(Q) How about this compound: O=C1CCC2(c3ccccc3)Nc3ncccc3N12 (stereo unspecified)
(A) inactive

(Q) How about this compound: `[N-]=[N+]=Nc1c([N+](=O)[O-])c(Cl)nc2ccccc12`
(A) inactive

(Q) How about this compound: `N#Cc1c(-c2ccccc2)cc(-c2ccc(Cl)cc2)[nH]c1=S`
(A) inactive

(Q) How about this compound: `C[n+]1ccc2[nH]c3ccccc3c2c1`
(A) inactive

(Q) How about this compound: CC(C)C[C@H](NC(=O)[C@H](CC(C)C)NC(=O)[C@@H](Cc1c[nH]c2ccccc12)NC(=O)[C@H](Cc1ccccc1)NC(=O)[C@@H](Cc1c[nH]c2ccccc12)NC(=O)[C@H](CCC(N)=O)NC(=O)[C@@H](CCC(N)=O)NC(=O)[C@@H]1CCCN1C(=O)[C@@H](CCCCN)NC(=O)[C@H]1CCCN1C(=O)[C@H](N)CCCN=C(N)N)C(N)=O (H-[dR][dP][dK]P[dQ]Q[dW]F[dW]LL-NH2)
(A) inactive

(Q) How about this compound: `CCOc1ccc(N/C(=C(/C(Cl)=C(/Cl)NC(C)(C)C)[N+](=O)[O-])n2nnc3ccccc32)cc1`
(A) inactive

(Q) How about this compound: Cc1ccc(C)c(N2C/C(=N\NC(=O)CC#N)C(c3nc4ccccc4s3)C(=O)C2=O)c1 (stereo unspecified)
(A) inactive

(Q) How about this compound: CCCC1C(=O)C(CC)Cc2c(OC)ccc(OC)c21 (stereo unspecified)
(A) inactive

(Q) How about this compound: `Nc1cc2nc(-c3ccccc3)cn2cn1`
(A) inactive

(Q) How about this compound: `COc1cc(C)c2c(c1)CN1CN2Cc2cc(OC)cc(C)c21`
(A) inactive

(Q) How about this compound: `C/C=C/CC(S(=O)(=O)c1ccccc1)S(=O)(=O)c1ccccc1`
(A) inactive

(Q) How about this compound: `Cc1cc(-c2nc3ccccc3s2)ccc1NC(=O)[C@H](C)N`
(A) active
